- Test system: CCRF-CEM leukemia
- Experiment description: NCI tumour cell line growth inhibition, 48 h
So I've got a bunch of compounds here, and I need their TGI values.

## Input Query the reported TGI for CCRF-CEM leukemia; item: O=C(CCCCCCSc1nc(-c2ccccc2)cc(-c2ccc(Cl)cc2)n1)NO
## Output 6.49 µM

## Input And the next one, COc1cccc2cc(C)c(C(=O)c3ccccc3)nc12 ?
## Output > 100 µM

## Input And the next one, COc1cc(OC)c2c(O)cc(CC(C)O)cc2c1 (stereo unspecified) ?
## Output > 100 µM

## Input And the next one, O=C(O)c1c(-c2cccc3ccccc23)sc(-c2cccc3ccccc23)c1C(=O)O ?
## Output > 100 µM

## Input And the next one, Cc1c(-c2c(C)c3ccccc3n2S(=O)(=O)c2ccccc2)n(S(=O)(=O)c2ccccc2)c2ccccc12 ?
## Output > 100 µM

## Input And the next one, CC1=NOC2(C1)/C(=N/O)CCC/C2=N\O (stereo unspecified) ?
## Output > 100 µM

## Input And the next one, COC(=O)C1CC2(CC3=C1CCCC3)OCCO2 (stereo unspecified) ?
## Output > 100 µM

## Input And the next one, Cc1ccc([N+](=O)[O-])cc1S(=O)(=O)Nc1ccc(C2=NN(c3ccc([N+](=O)[O-])cc3[N+](=O)[O-])C(c3ccccc3)C2)cc1 (stereo unspecified) ?
## Output > 100 µM

## Input And the next one, Cc1ncc(CN=Cc2ccc(Cl)cc2)c(N)n1 ?
## Output > 100 µM

## Input And the next one, c1ccc(CNc2c3c(nc4ccccc24)CCC3)cc1 ?
## Output 20.9 µM

## Input And the next one, CCOC(C[Se]CC(OCC)OCC)OCC ?
## Output 95.9 µM

* * *

- Test system: HT29 colon
- Experiment description: NCI tumour cell line growth inhibition, 48 h
So I've got a bunch of compounds here, and I need their TGI values.
Reply numerically in µM, unit not repeated.

## Input Query (compound): CC(C)/C(Cl)=N/OC(=O)Nc1ccc(F)c(Cl)c1 ; field requested: TGI
## Output 13.3

## Input And the next one, Cn1ccnc1S/C(=C\C=C(C#N)C#N)c1ccc(Cl)cc1 ?
## Output 16.2

## Input And the next one, CC(C)C[C@H](NC(=O)[C@H](Cc1cccc2ccccc12)NC(=O)N1CCOCC1)B(O)O ?
## Output 0.00448

## Input And the next one, Cc1ccc2c(=O)cc(-c3csc4ccccc34)[nH]c2n1 ?
## Output 0.0481

* * *

- System: A549 NSCLC
- Experiment description: NCI tumour cell line growth inhibition, 48 h
So I've got a bunch of compounds here, and I need their TGI values.

## Input Query (compound): O=C(O)CSc1n[nH]c(-c2ccc(O)cc2)n1 ; field requested: TGI
## Output > 100 µM

## Input And the next one, CC(=O)c1ccc(N=Nc2ccc3nonc3c2N)cc1 ?
## Output > 100 µM

## Input And the next one, COc1cc2c(cc1C[N+](C)(C)CSc1ccccc1)-c1ccccc1CC2 ?
## Output 45.8 µM

## Input And the next one, CC(=O)OC[C@H]1O[C@@H](O[C@H]2[C@H](OC(C)=O)C=CO[C@@H]2COC(C)=O)C(OC(C)=O)[C@H]2OC(C)(C)O[C@H]21 (stereo not given in full) ?
## Output > 100 µM

## Input And the next one, COc1cc(CCc2ccc(OCCN(C)C)cc2)cc(OC)c1OC ?
## Output > 100 µM
